Tested on: HS 578T breast
PROTOCOL_SUMMARY: NCI tumour cell line growth inhibition, 48 h
Assign GI50 to each entry below.

Request: Report GI50 for O=C(OCc1ccc2c(Cl)cc(Cl)c(O)c2n1)c1cc2ccccc2[nH]1 please.
Response: 1.62 µM

Request: Report GI50 for O=C1CCc2c(sc3[nH]c(=S)n(Cc4ccccc4)c(=O)c23)C1 please.
Response: 3.09 µM

Request: Report GI50 for CC(=O)OCC1O[C@@H]([S-])C(OC(C)=O)[C@H](OC(C)=O)[C@@H]1OC(C)=O.[Au+].c1ccc(CN2[CH-]N(Cc3ccccc3)C(c3ccccc3)=C2c2ccccc2)cc1 please.
Response: 2.51 µM

Request: Report GI50 for Nc1c(C(=O)Nc2ccccc2F)sc2nc3c(cc12)C(=O)CCC3 please.
Response: 2.01 µM
